Molecular target: human FXR (NR1H4) (Homo sapiens (Human))
Sequence (Q96RI1 whole entry, the tested form may be a part): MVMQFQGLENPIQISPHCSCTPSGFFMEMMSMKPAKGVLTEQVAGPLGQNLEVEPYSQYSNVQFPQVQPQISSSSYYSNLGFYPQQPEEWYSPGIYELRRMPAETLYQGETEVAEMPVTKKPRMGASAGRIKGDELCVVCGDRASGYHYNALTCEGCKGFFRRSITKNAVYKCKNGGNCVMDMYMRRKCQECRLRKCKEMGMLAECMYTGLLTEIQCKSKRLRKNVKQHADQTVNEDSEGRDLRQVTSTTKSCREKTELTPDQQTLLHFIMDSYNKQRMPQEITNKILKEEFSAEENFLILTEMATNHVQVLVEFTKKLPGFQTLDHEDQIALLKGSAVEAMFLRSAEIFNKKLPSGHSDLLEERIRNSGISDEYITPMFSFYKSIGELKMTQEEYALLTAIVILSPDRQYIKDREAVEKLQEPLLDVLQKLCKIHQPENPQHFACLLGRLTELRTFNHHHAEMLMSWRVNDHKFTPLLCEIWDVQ
Assay: Human FXR (NR1H4) Assay (Gal4 promoter driven luciferase reporter, Indigo Bioscience kit IB00601)
Details: potency ranges
pEC50: −log10 of the molar value.
Recorded pEC50, one value per entry.

# compound, test.value
rows = [
    ("CC[C@H]1[C@@H](O)[C@@H]2[C@H](CC[C@]3(C)[C@@H]([C@H](C)CCNC(=O)NS(=O)(=O)c4cccc(C(C)(C)C)c4)CC[C@@H]23)[C@@]2(C)CC[C@@H](O)C[C@@H]12", "> 7.00"),
    ("CCCCS(=O)(=O)NC(=O)NCC[C@@H](C)[C@H]1CC[C@H]2[C@@H]3[C@H](O)[C@H](CC)[C@@H]4C[C@H](O)CC[C@]4(C)[C@H]3CC[C@]12C", "> 7.00"),
    ("CC[C@H]1[C@@H](O)[C@@H]2[C@H](CC[C@]3(C)[C@@H]([C@H](C)CCNC(=O)NS(=O)(=O)c4ccccc4)CC[C@@H]23)[C@@]2(C)CC[C@@H](O)C[C@@H]12", "> 7.00"),
]

Q: // fetch pEC50 given entry CC[C@H]1[C@@H](O)[C@@H]2[C@H](CC[C@]3(C)[C@@H]([C@H](C)CCNS(=O)(=O)C(C)(C)C)CC[C@@H]23)[C@@]2(C)CC[C@@H](O)C[C@@H]12
Ans: 5.00 to 6.00

Q: // fetch pEC50 given entry CC[C@H]1[C@@H](O)[C@@H]2[C@H](CC[C@]3(C)[C@@H]([C@H](C)CCNC(=O)NS(=O)(=O)C4CC5CCC4C5)CC[C@@H]23)[C@@]2(C)CC[C@@H](O)C[C@@H]12 (some centres unmarked)
Ans: > 7.00
